Experiment: chemical genetic growth profiling, strain panel (AID 1159580);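 note: tested at 20 µM; growth read once vehicle control cultures reached saturation at 30 °C; 1 = growth at the plate median or of vehicle wells; lower values mean less growth of the strain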
Settings: S. cerevisiae deletion strains, growth OD, locus YGR229C, strain SMI1, stronger effect = lower value
Screen size: about 5,500 compounds; about 2,000 (36%) were called active. Inconclusive results (about 18%) are left out. Some of the results follow.
quantityMeasured: normalized growth
Answers are plain numbers.

# smilesStructure, readoutValue
records = [
    ("C[C@H]1c2cccc(O)c2C(O)=C2C(=O)[C@]3(O)C(O)=C(C(N)=O)C(=O)[C@@H](N(C)C)[C@@H]3[C@@H](O)[C@@H]21", 0.983),
]

Dear colleague, could you send me normalized growth for each of the items below? Thanks.
1. CC(=O)Oc1ccc(C(c2ccc(OC(C)=O)cc2)c2ccccn2)cc1
2. COC(=O)/C(=C1\OC(=O)C(c2ccccc2)=C1O)c1ccccc1
3. CC(=O)Oc1cccc(O)c1

1: 1.01; 2: 0.98; 3: 1

---

Assay: chemical genetic growth profiling, strain panel (AID 1159580);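 note: tested at 20 µM; growth read once vehicle control cultures reached saturation at 30 °C; 1 = growth at the plate median or of vehicle wells; lower values mean less growth of the strain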
Conditions: S. cerevisiae deletion strains, growth OD, locus YAL030W, strain snc1, stronger effect = lower value
The campaign covered roughly 5,500 compounds. About 2,000 (36%) were called active. Another 18% or so got no clear call; they are omitted. Some of the results follow.
quantityMeasured: normalized growth

Example entries begin here.
# compound, readoutValue
data = [
    ("COc1ccc(C2Sc3ccccc3N(CCN(C)C)C(=O)C2OC(C)=O)cc1 (stereo not given)", "0.986 (inactive)"),
    ("CNCCCC12CCC(c3ccccc31)c1ccccc12", "0.999 (inactive)"),
    ("CC1(C)CC2C1CC[C@]1(CBr)CCC3C(CC(=O)O)C(=O)O[C@@]32C1 (stereo not given in full)", "1.01 (inactive)"),
    ("Cc1cc(=O)[nH]c(=S)[nH]1", "0.98 (inactive)"),
]

Now let's try a different one.
Which normalized growth is reported for this compound? Cc1cn[nH]c1
1.03 (inactive)

---

Assay: chemical genetic growth profiling, strain panel (AID 1159580);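 note: tested at 20 µM; growth read once vehicle control cultures reached saturation at 30 °C; 1 = growth at the plate median or of vehicle wells; lower values mean less growth of the strain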
Details: S. cerevisiae deletion strains, growth OD, locus YOR083W, strain WHI5 (second series), stronger effect = lower value
About 2,000 (36%) of roughly 5,500 compounds were called active. About 18% were inconclusive and are not listed. Some of the results follow.
quantityMeasured: normalized growth

# compound, normalized growth
data = [
    ("CCCN(CCc1ccccc1)C1CCc2c(O)cccc2C1 (configuration not stated)", "1.02 (inactive)"),
    ("CCN(CC)CCOC(=O)C1(C2CCCCC2)CCCCC1", "1.02 (inactive)"),
    ("CC(N)(C(=O)O)c1ccc(C(=O)O)cc1 (configuration not stated)", "1.02 (inactive)"),
    ("CC(=O)NNC(=O)N1Cc2ccccc2Oc2ccc(Cl)cc21", "1.01 (inactive)"),
    ("Cc1[nH]c2ccc(O)cc2c1CCN", "0.999 (inactive)"),
]

For each entry beneath this line, provide reported normalized growth.
1. CCN(CC)CCOCCOC(=O)C1(c2ccccc2)CCCC1
2. Nc1ncn(C2OC(CO)C(O)C2O)c(=O)n1 (configuration not stated)
3. CC(CCc1ccccc1)NCC(O)c1ccc(O)c(C(N)=O)c1 (configuration not stated)
4. CC[C@@H](C)[C@H]1O[C@]2(CC[C@@H]1C)C[C@@H]1C[C@@H](C/C=C(\C)[C@@H](O[C@H]3C[C@H](OC)[C@@H](O[C@H]4C[C@H](OC)[C@@H](O)[C@H](C)O4)[C@H](C)O3)[C@@H](C)/C=C/C=C3\CO[C@@H]4[C@H](O)C(C)=C[C@@H](C(=O)O1)[C@]34O)O2

1: 0.996 (inactive); 2: 1 (inactive); 3: 1.02 (inactive); 4: 0.981 (inactive)
